system: ATP; test: switch fluorescence ratio, 500 uM ATP over buffer (Cy3 cluster intensity, sum of 5 cycles each) (fold (ratio)); higher = stronger signal-on switching upon ATP binding; sequences stand for … in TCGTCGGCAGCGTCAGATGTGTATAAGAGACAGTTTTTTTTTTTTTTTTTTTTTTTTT…TC; conditions: aptamer strand: ATP DNA aptamer (quencher-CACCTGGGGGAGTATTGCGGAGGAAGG + anchor), 100 nM annealed; ATP concentration: 500 uM;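 note: ATP exposure 15 min at 22 °C before imaging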
readoutName: switch fluorescence ratio

Consider the reported switch fluorescence ratio for these sequences:
{"columns": ["sequenceCode", "targetOrTestSystem", "switch fluorescence ratio"],
 "data": [
  ["TGTGGCTTAA", "ATP", 0.967],
  ["AAAATTCGTA", "ATP", 1.03],
  ["ATGTCAAAAG", "ATP", 1],
  ["GGAAGAAGAT", "ATP", 0.982],
  ["AGATGGTCAA", "ATP", 0.967]
]}

Here are 5 sequences. What values of switch fluorescence ratio were reported for them?
1. AGATAGGAGT
2. TATGGTATGC
3. ATTAGGTTCT
4. CAGGGATTTA
5. TAAATTTGAA

Reply:
1: 1.02; 2: 1.01; 3: 0.97; 4: 0.978; 5: 0.976

For each of the items listed, what is its switch fluorescence ratio?
1. ACACTAATCT
2. AAGTTGGAGT
3. AATGTTTATT

Reply:
1. 1.16
2. 1.02
3. 0.954

Hi there! I need switch fluorescence ratio for each item below, if you can.
1. ATGCAATGCT
2. TTGAAAGTTT
3. TTTCTGGCTT

Reply:
1: 3.19; 2: 1.01; 3: 1.02

// batch mode: one switch fluorescence ratio value per listed entry
1. AAGATATGGC
2. CTGCATGTGC
3. AGATGCTTAT
4. TGGGCTTCAT

Reply:
1: 1.02; 2: 2.14; 3: 0.979; 4: 0.998
